# Tested on: SKLU-1 (human lung adenocarcinoma)
# assay details: Cytotoxicity, sulforhodamine B (SRB) microculture assay
# Assay type: cell-based
Each item that follows carries a reported IC50.

structure | IC50 [µM]
Cn1cccc1/C=C/C(=O)C=C([O-])/C=C/c1cccn1C.Cn1cccc1/C=C/C(=O)C=C([O-])/C=C/c1cccn1C.[Cu+2] | 10.3
O=C(C=C([O-])/C=C/c1ccco1)/C=C/c1ccco1.O=C(C=C([O-])/C=C/c1ccco1)/C=C/c1ccco1.[Cu+2] | 6.5

---

# System: HCT-15 (human colon adenocarcinoma)
# assay details: Cytotoxicity, sulforhodamine B (SRB) microculture assay
# Assay type: cell-based
# condition: Homo sapiens, 25 μM, read-out: % of Inhibition (cytotoxic screening)
# Description: The cytotoxicity of all compounds was tested against six cancer cell lines: U251 (human glioblastoma cell line), PC-3 (human prostate adenocarcinoma), K562 (human chronic myelogenous leukemia), HCT-15 (human colon adenocarcinoma), MCF-7 (human mammary adenocarcinoma), and SKLU-1 (human lung adenocarcinoma). Cell lines were supplied by the U.S. National Cancer Institute (NCI). […]
Each item that follows carries a reported inhibition at 25 µM.

structure | inhibition at 25 µM / %
O=C(/C=C(O)/C=C/c1cccs1)/C=C/c1cccs1 | 0
COc1cc(/C=C/C(=O)CC(=O)/C=C/c2ccc(O)c(OC)c2)ccc1O | 80
O=C(/C=C(O)/C=C/c1ccco1)/C=C/c1ccco1 | 0
Cn1cccc1/C=C/C(=O)/C=C(O)/C=C/c1cccn1C | 18.1
